# System: L3055 BL cells
# Assay Overview: DNA synthesis by [3H]-thymidine incorporation in L3055 cells
# Type: cell-based
# Reported Conditions: L3055, read-out: 5-HT required to achieve 50% inhibition of DNA synthesis, plating density 10^5 per ml (2×10^4/well)
Parameter: IC50

What measured IC50 goes with NCCc1c[nH]c2ccc(O)cc12 [Example 5-HT, Serotonin] ?
> 50 µM
